// Ki collected for muscarinic M3 receptor (Rattus norvegicus, UniProt P08483)

Form field: reported Ki of O=C(NC1CCN(Cc2cccc(Cl)n2)CC1)C(O)(c1ccccc1)C1CCCC1 (stereo not shown)
7.6 nM

Field entry: COc1ccnc(CN2CCC(NC(=O)C(O)(c3ccccc3)C3CCCC3)CC2)c1 (stereo not shown)
9.4 nM

Field entry: O=C(NC1CCN(Cc2cc(Cl)ccn2)CC1)C(O)(c1ccccc1)C1CCCC1 (stereo not shown)
8.8 nM

Field entry: Cc1cccc(CN2CCC(NC(=O)[C@](O)(c3ccccc3)C3CCCC3)CC2)n1.Cl.Cl [Example 1, dihydrochloride]
2.9 nM

---

# experimental system: muscarinic M1 receptor (Rattus norvegicus)
# Sequence (P08482 1-460): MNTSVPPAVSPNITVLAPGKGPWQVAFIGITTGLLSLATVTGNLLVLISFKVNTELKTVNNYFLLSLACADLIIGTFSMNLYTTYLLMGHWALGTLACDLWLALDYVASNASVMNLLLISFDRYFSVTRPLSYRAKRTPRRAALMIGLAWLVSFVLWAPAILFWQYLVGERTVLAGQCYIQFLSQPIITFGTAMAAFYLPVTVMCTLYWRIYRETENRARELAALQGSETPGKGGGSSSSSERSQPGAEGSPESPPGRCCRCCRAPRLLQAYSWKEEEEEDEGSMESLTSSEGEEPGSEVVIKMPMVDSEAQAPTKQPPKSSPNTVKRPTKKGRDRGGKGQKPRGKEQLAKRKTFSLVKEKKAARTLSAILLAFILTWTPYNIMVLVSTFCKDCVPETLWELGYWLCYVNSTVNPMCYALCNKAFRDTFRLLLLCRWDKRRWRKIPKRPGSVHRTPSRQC
Give measured pKi for each item. Keep answers brief.
The scale used: pKi is minus the common logarithm of the concentration in molar units.

Form field: reported pKi of O=C(NC1CCN(Cc2cccc(Cl)n2)CC1)C(O)(c1ccccc1)C1CCCC1 (stereo not drawn) [Example 10]
7.80

Field entry: COc1ccnc(CN2CCC(NC(=O)C(O)(c3ccccc3)C3CCCC3)CC2)c1 (stereo not drawn) [Example 9]
7.54

Field entry: O=C(NC1CCN(Cc2cc(Cl)ccn2)CC1)C(O)(c1ccccc1)C1CCCC1 (stereo not drawn) [Example 11]
7.96
